Where do the numbers come from? From patent US8338622B2.

- test system: RBP4 (Mus musculus)
- Construct: from tissue; host or cells: plasma of male C57BL/6J mice (Charles River Laboratories Japan Inc.)
- assay protocol: Blood RBP4 lowering action in C57BL/6J mouse, single oral administration
- Type: in vivo
- assay conditions: plasma, 7 hr after 50 mg/kg oral, mean±SD n=5
reported endpoint: RBP4 (% of initial/Control) 7 hr later

Solved cases (5 shown):
{"compound": "O=C(O)CO[C@H]1CCN(c2cc(C(F)(F)F)cc(C(F)(F)F)c2)C1", "reported endpoint": "RBP4 (% of initial/Control) 7 hr later", "value observed": "39.6 ± 0.4 % of initial/Control"}
{"compound": "O=C(O)CCN1CCN(c2cc(C(F)(F)F)cc(C(F)(F)F)c2)C1=O", "reported endpoint": "RBP4 (% of initial/Control) 7 hr later", "value observed": "49.0 ± 1.1 % of initial/Control"}
{"compound": "O=C(O)COC1CCN(c2ccc(Cl)c(C(F)(F)F)c2)C1 (stereo not shown)", "reported endpoint": "RBP4 (% of initial/Control) 7 hr later", "value observed": "56.0 ± 1.6 % of initial/Control"}
{"compound": "O=C(O)CSC1CCN(c2cc(C(F)(F)F)cc(C(F)(F)F)c2)C1 (stereo not shown)", "reported endpoint": "RBP4 (% of initial/Control) 7 hr later", "value observed": "36.0 ± 3.2 % of initial/Control"}
{"compound": "O=C(O)CCC1CCN(c2ccc(Cl)c(C(F)(F)F)c2)C1 (stereo not shown)", "reported endpoint": "RBP4 (% of initial/Control) 7 hr later", "value observed": "56.5 ± 2.5 % of initial/Control"}

Task item: RBP4 (% of initial/Control) 7 hr later lookup needed for O=C(O)CCC1CCC(c2cc(C(F)(F)F)cc(C(F)(F)F)c2)O1 (racemic) , thanks.
Reply: 34.8 ± 2.6 % of initial/Control

Task item: RBP4 (% of initial/Control) 7 hr later lookup needed for O=C(O)CO[C@@H]1CCN(c2cc(C(F)(F)F)cc(C(F)(F)F)c2)C1 , thanks.
Reply: 40.5 ± 0.2 % of initial/Control
